- measured_target: T1, human tissue factor pathway inhibitor (TFPI) (human, UniProt P10646 29-304, limits assumed)
- T1 construct: Bought protein; also called human TFPI; hTFPI
- T1 sequence (looked up): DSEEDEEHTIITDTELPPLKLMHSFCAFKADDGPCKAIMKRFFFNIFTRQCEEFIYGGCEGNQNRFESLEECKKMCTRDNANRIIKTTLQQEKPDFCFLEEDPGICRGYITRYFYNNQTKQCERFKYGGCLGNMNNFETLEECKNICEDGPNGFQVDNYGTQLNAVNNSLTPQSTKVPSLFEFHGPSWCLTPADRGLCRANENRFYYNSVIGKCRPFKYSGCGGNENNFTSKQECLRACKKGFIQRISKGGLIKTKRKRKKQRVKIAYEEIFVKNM
- test_protocol: ELISA, Fab on coated TFPI
observation_type: EC50 (nM)
Numbers only, in nM.

Study these solved cases before continuing.
1) TP-3C1 Fab (Fab, V domains shown, Human Fab from HuCal Gold, expressed in E. coli TG1; Shares its VL with TP-2G9 and its VH with TP-3F2) VH: QVQLVESGGGLVQPGGSLRLSCAASGFTFSSYSMHWVRQAPGKGLEWVSGISYSSSFTYYADSVKGRFTISRDNSKNTLYLQMNSLRAEDTAVYYCARALGGGVDYWGQGTLVTVSS VL: DIALTQPASVSGSPGQSITISCTGTSSDLGGFNTVSWYQQHPGKAPKLMIYSVSSRPSGVSNRFSGSKSGNTASLTISGLQAEDEADYYCQSYDLNNLVFGGGTKLTVLG :: 32.8
2) TP-3C2 Fab (Fab, V domains shown, Human Fab from HuCal Gold, expressed in E. coli TG1) VH: QVQLQQSGPGLVKPSQTLSLTCAISGDSVSSSSAAWSWIRQSPGRGLEWLGMIYYRSKWYNHYAVSVKSRITINPDTSKNQFSLQLNSVTPEDTAVYYCARGGSGVMDVWGQGTLVTVSS VL: DIQMTQSPSSLSASVGDRVTITCRASQSITNYLNWYQQKPGKAPKLLIYDVSNLQSGVPSRFSGSGSGTDFTLTISSLQPEDFAVYYCQQYSGYPLTFGQGTKVEIKR :: 59
3) TP-3B4 Fab (Fab, V domains shown, Human Fab from HuCal Gold, expressed in E. coli TG1) VH: QVQLQQSGPGLVKPSQTLSLTCAISGDSVSSNGAAWGWIRQSPGRGLEWLGHIYYRSKWYNSYAVSVKSRITINPDTSKNQFSLQLNSVTPEDTAVYYCARWGGIHDGDIYFDYWGQGTLVTVSS VL: DIQMTQSPSSLSASVGDRVTITCRASQNISNYLNWYQQKPGKAPKLLIYGTSSLQSGVPSRFSGSGSGTDFTLTISSLQPEDFAVYYCQQYGNNPTTFGQGTKVEIKR :: 35.8
4) TP-4G8 Fab (Fab, V domains shown, Human Fab from HuCal Gold, expressed in E. coli TG1) VH: QVQLVESGGGLVQPGGSLRLSCAASGFTFSTYAMHWVRQAPGKGLEWVSTISGYGSFTYYADSVKGRFTISRDNSKNTLYLQMNSLRAEDTAVYYCARNGRKYGQMDNWGQGTLVTVSS VL: DIELTQPPSVSVAPGQTARISCSGDKLGSKSVHWYQQKPGQAPVLVIYRDTDRPSGIPERFSGSNSGNTATLTISGTQAEDEADYYCQTYDYILNVFGGGTKLTVLG :: 847
5) TP-3G1 Fab (Fab, V domains shown, Human Fab from HuCal Gold, expressed in E. coli TG1) VH: QVQLQQSGPGLVKPSQTLSLTCAISGDSVSSNSGGWGWIRQSPGRGLEWLGLIYYRSKWYNAYAVSVKSRITINPDTSKNQFSLQLNSVTPEDTAVYYCARYLGSNFYVYSDVWGQGTLVTVSS VL: DIQMTQSPSSLSASVGDRVTITCRASQGISSYLHWYQQKPGKAPKLLIYGASTLQSGVPSRFSGSGSGTDFTLTISSLQPEDFATYYCQQQNGYPFTFGQGTKVEIKR :: 74.4
6) TP-2E5 Fab (Fab, V domains shown, Human Fab from HuCal Gold, expressed in E. coli TG1) VH: QVQLQQSGPGLVKPSQTLSLTCAISGDSVSSNSAAWSWIRQSPGRGLEWLGMIFYRSKWNNDYAVSVKSRITINPDTSKNQFSLQLNSVTPEDTAVYYCARVNANGYYAYVDLWGQGTLVTVSS VL: DIQMTQSPSSLSASVGDRVTITCRASQPIYNSLSWYQQKPGKAPKLLIYGVSNLQSGVPSRFSGSGSGTDFTLTISSLQPEDFAVYYCLQVDNLPITFGQGTKVEIKR :: 792

Please state, for each entry, its recorded EC50.
1. TP-4A9 Fab (Fab, V domains shown, Human Fab from HuCal Gold, expressed in E. coli TG1) VH: QVQLVESGGGLVQPGGSLRLSCAASGFTFSSYGMSWVRQAPGKGLEWVSLISGVSSSTYYADSVKGRFTISRDNSKNTLYLQMNSLRAEDTAVYYCARSYLGYFDVWGQGTLVTVSS VL: DIELTQPPSVSVAPGQTARISCSGDALGKYYASWYQQKPGQAPVLVIYGDNKRPSGIPERFSGSNSGNTATLTISGTQAEDEADYYCQSYTTRSLVFGGGTKLTVLG
2. TP-2B3 Fab (Fab, V domains shown, Human Fab from HuCal Gold, expressed in E. coli TG1) VH: QVQLQQSGPGLVKPSQTLSLTCAISGDSVSSNSAAWGWIRQSPGRGLEWLGMIYYRSKWYNSYAVSVKSRITINPDTSKNQFSLQLNSVTPEDTAVYYCARTMSKYGGPGMDVWGQGTLVTVSS VL: DIVLTQSPATLSLSPGERATLSCRASQNIGSNYLAWYQQKPGQAPRLLIYGASTRATGVPARFNGSGSGTDFTLTISSLEPEDFAVYYCQQLNSIPVTFGQGTKVEIKR

Return:
[0.17, 0.84]

Give EC50 for each listed item.
1. TP-4H8 Fab (Fab, V domains shown, Human Fab from HuCal Gold, expressed in E. coli TG1) VH: QVQLVESGGGLVQPGGSLRLSCAASGFTFSDHAMHWVRQAPGKGLEWVSVIEYSGSKTNYADSVKGRFTISRDNSKNTLYLQMNSLRAEDTAVYYCARGDYYPYLVFAIWGQGTLVTVSS VL: DIELTQPPSVSVAPGQTARISCSGDSIGKKYVHWYQQKPGQAPVLVIYGDNNRPSGIPERFSGSNSGNTATLTISGTQAEDEADYYCSTADSVITYKNVFGGGTKLTVLG
2. TP-2G7 Fab (Fab, V domains shown, Human Fab from HuCal Gold, expressed in E. coli TG1) VH: QVQLVESGGGLVQPGGSLRLSCAASGFTFNSYAMSWVRQAPGKGLEWVSNISSNSSNTYYADSVKGRFTISRDNSKNTLYLQMNSLRAEDTAVYYCARKGGGEHGFFPSDIWGQGTLVTVSS VL: DIELTQPPSVSVAPGQTARISCSGDNLGTYYVHWYQQKPGQAPVLVIYGDNNRPSGIPERFSGSNSGNTATLTISGTQAEDEADYYCQTYDSNNESIVFGGGTKLTVLG

Return:
1. 72.5
2. 23.5
